Reference for the values: patent US20240216357A1

subject.of.test: LSD1 (Homo sapiens (Human))
experimental.details: LSD1 enzyme activity detection (HTRF)
Type: biochemical
particulars: HTRF, H3K4me1 substrate; read-out: Inhibition of enzymatic activity of LSD1 IC50
pIC50: −log10 of the molar value. Where a name gives a salt, the structure may show the parent alone.
Class 1.0: pIC50 at least 8. Class 0.0: pIC50 below 8.

Asked: Threshold query (pIC50 >= 8) on `COc1ccc(-c2c(C#N)cc(N3CCC(N)CC3)nc2-c2ccc(C#N)c(F)c2)cc1O`
Given back: 1.0

Asked: Threshold query (pIC50 >= 8) on COc1ccc(-c2cnc(N3CCC(N)CC3)c(C#N)c2-c2ccc(C#N)c(F)c2)cc1 [Example 69, hydrochloride]
Given back: 1.0

Asked: Threshold query (pIC50 >= 8) on `COc1ccc(-c2nc(CN[C@@H]3C[C@H]3c3ccc(F)cc3)cc(C(=O)N3CCN(S(C)(=O)=O)CC3)n2)cc1O`
Given back: 0.0

Asked: Threshold query (pIC50 >= 8) on COc1ccc(-c2c(-c3ccc(C#N)c(F)c3)nc(N3CC4CC3CC4N)n3ccnc23)cc1F (centres unmarked) [Example 169, hydrochloride]
Given back: 1.0

Asked: Threshold query (pIC50 >= 8) on COc1ccc(-c2c(O)cc(N3CCC(N)CC3)nc2-c2ccc(C#N)c(F)c2)cc1OC [Example 33, hydrochloride]
Given back: 0.0

Asked: Threshold query (pIC50 >= 8) on `COc1ccc(-c2c(O)cc(N3CCN(C)CC3)nc2-c2ccc(C#N)c(F)c2)cc1F`
Given back: 0.0

Asked: Threshold query (pIC50 >= 8) on Cc1noc2c(-c3sc(C(=O)N4C5CCC4CC(N)C5)cc3-c3ccc(C#N)c(F)c3)c(F)ccc12 (centres unmarked) [Example 209, hydrochloride]
Given back: 1.0

Asked: Threshold query (pIC50 >= 8) on `N#Cc1ccc(-c2nc(N3CCC(N)CC3)n3ccnc3c2-c2ccc(C(F)(F)F)c(O)c2)cc1F`
Given back: 1.0

Asked: Threshold query (pIC50 >= 8) on Cc1noc2cc(-c3c(-c4ccc(C#N)c(F)c4)nc(N4C5CCC4CC(N)C5)n4ccnc34)c(F)cc12 (centres unmarked)
Given back: 1.0

Asked: Threshold query (pIC50 >= 8) on COc1ccc(C2CC2NCc2c(OC)cc(N3CCC(N)CC3)nc2-c2ccc(C#N)c(F)c2)cc1F (centres unmarked)
Given back: 0.0

Asked: Threshold query (pIC50 >= 8) on Cc1ccc(-c2c(-c3ccc(C#N)c(F)c3)nc(N3CCC(N)CC3)n3ccnc23)cc1O [Example 136, hydrochloride]
Given back: 1.0

###

subject.of.test: CYP3A4 (Homo sapiens (Human))
Sequence (P08684 whole entry): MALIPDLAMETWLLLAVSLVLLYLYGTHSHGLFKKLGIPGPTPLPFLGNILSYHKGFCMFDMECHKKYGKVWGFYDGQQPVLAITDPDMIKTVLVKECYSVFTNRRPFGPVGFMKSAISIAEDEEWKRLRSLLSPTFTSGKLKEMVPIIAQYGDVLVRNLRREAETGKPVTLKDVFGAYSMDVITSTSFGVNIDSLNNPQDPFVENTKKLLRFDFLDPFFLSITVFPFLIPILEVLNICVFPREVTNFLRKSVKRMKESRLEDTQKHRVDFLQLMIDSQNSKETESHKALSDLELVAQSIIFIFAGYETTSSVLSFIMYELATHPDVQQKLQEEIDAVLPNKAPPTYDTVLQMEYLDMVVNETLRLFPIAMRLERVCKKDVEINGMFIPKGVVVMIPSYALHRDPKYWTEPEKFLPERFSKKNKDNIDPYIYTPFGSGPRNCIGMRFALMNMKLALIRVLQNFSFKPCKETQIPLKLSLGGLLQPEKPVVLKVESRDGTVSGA
experimental.details: CYP 450 enzyme inhibition test (mixed human liver microsomes, LC-MS/MS)
particulars: read-out: CYP3A4-T IC50; mixed human liver microsomes, NADPH, CYP3A4-T probe substrate
Structures can show the parent of a compound that is named as a salt.
measured.parameter: pIC50
pIC50 (log units): -log10 of the concentration in mol/L.

Asked: For COc1ccc(-c2cnc(N3CCC(N)CC3)c(C#N)c2-c2ccc(C#N)c(F)c2)cc1O [Example 66, hydrochloride] , write its pIC50.
Given back: 5.44

Asked: For `Cc1noc2cc(-c3cnc(N4CCC(N)CC4)c(C#N)c3-c3ccc(C#N)c(F)c3)c(F)cc12` , write its pIC50.
Given back: 5.37

###

subject.of.test: LSD1 (Homo sapiens (Human))
experimental.details: LSD1 enzyme activity detection (HTRF)
Assay type: biochemical
particulars: HTRF, H3K4me1 substrate; read-out: Inhibition of enzymatic activity of LSD1 IC50
pIC50: −log10 of the molar value. Structures can show the parent of a compound that is named as a salt.
Class 1: pIC50 at least 8. Class 0: pIC50 below 8.

Asked: Threshold query (pIC50 >= 8) on CCCCCc1noc2cc(-c3sc(C(=O)N4C5CCC4CC(N)C5)cc3-c3ccc(C#N)c(F)c3)c(F)cc12 (stereo not shown)
Given back: 1

Asked: Threshold query (pIC50 >= 8) on COc1ccc(-c2c(-c3ccc(C#N)c(F)c3)nc(N3CC4CC(C3)C4N)n3ccnc23)cc1F (stereo not shown) [Example 167, hydrochloride]
Given back: 0

Asked: Threshold query (pIC50 >= 8) on `COc1ccc(-c2c(O)cc(N3CC[C@@H](N)[C@H](OC)C3)nc2-c2ccc(C#N)c(F)c2)cc1F`
Given back: 0

Asked: Threshold query (pIC50 >= 8) on Cc1noc2cc(-c3sc(C(=O)N4C5CCC4CC(N)C5)cc3-c3ccc(S(C)(=O)=O)cc3)c(F)cc12 (stereo not shown)
Given back: 0

Asked: Threshold query (pIC50 >= 8) on `Cc1ccc(-c2c(-c3ccc(C#N)cc3)cc3c(N4CCCCC4)nccn23)cc1`
Given back: 0

Asked: Threshold query (pIC50 >= 8) on CC(C)(O)COc1ccc(-c2c(O)cc(N3CCC(N)CC3)nc2-c2ccc(C#N)c(F)c2)cc1F [Example 38, hydrochloride]
Given back: 0

Asked: Threshold query (pIC50 >= 8) on `COc1ccc(-c2c(-c3ccc(C#N)c(F)c3)nc(N3CCC(N(C)C)CC3)n3ccnc23)cc1O`
Given back: 1

Asked: Threshold query (pIC50 >= 8) on COc1ccc(-c2c(-c3ccc(C#N)c(C#N)c3)nc(N3C4CCC3CC(N)C4)n3ccnc23)cc1F (stereo not shown) [Example 181, hydrochloride]
Given back: 0

Asked: Threshold query (pIC50 >= 8) on Cc1ccc(-c2c(-c3ccc(C#N)c(F)c3)nc(N3CC4CC(C3)C4N)n3ccnc23)cc1O (stereo not shown)
Given back: 1

Asked: Threshold query (pIC50 >= 8) on `CS(=O)(=O)N1CCN(c2cc(CN[C@@H]3C[C@H]3c3ccc(F)cc3)nc(-c3ccc(N4CCOCC4)cc3)n2)CC1`
Given back: 0

Asked: Threshold query (pIC50 >= 8) on `N#Cc1ccc(-c2nc(N3CCC(N)CC3)cc(O)c2-c2cc(O)c(F)c(F)c2)cc1F`
Given back: 1

Asked: Threshold query (pIC50 >= 8) on CC(C)(O)Cn1ncc2cc(F)c(-c3c(O)cc(N4CCC(N)CC4)nc3-c3ccc(C#N)c(F)c3)cc21 [Example 28, hydrochloride]
Given back: 0

Asked: Threshold query (pIC50 >= 8) on COc1ccc(-c2cnc(N3CC4CCC3CC4N)c(C#N)c2-c2ccc(C#N)c(F)c2)cc1O (stereo not shown)
Given back: 1

Asked: Threshold query (pIC50 >= 8) on `COc1ccc(-c2c(O)cc(N3CCC(N)CC3)nc2-c2ccc(C#N)c(F)c2)cc1O`
Given back: 1

Asked: Threshold query (pIC50 >= 8) on CNC1CCN(c2nc(-c3ccc(C#N)c(F)c3)c(-c3ccc(OC)c(O)c3)c3nccn23)CC1 [Example 138, hydrochloride]
Given back: 1

Asked: Threshold query (pIC50 >= 8) on COc1ccc(-c2cnc(N3CC4CCC(C3)C4N)c(C#N)c2-c2ccc(C#N)c(F)c2)cc1O (stereo not shown)
Given back: 0

Asked: Threshold query (pIC50 >= 8) on `N#Cc1ccc(-c2nc(N3CCC(N)CC3)cc(O)c2-c2ccc(OC(F)(F)F)c(F)c2)cc1F`
Given back: 0

Asked: Threshold query (pIC50 >= 8) on COc1cc(N2CCC(N)CC2)nc(-c2ccc(C#N)c(F)c2)c1-c1ccc(C)c(O)c1 [Example 95, hydrochloride]
Given back: 1

Asked: Threshold query (pIC50 >= 8) on `CS(=O)(=O)N1CCN(C(=O)c2cc(CCN[C@@H]3C[C@H]3c3ccc(F)cc3)cc(-c3ccc(-n4cccn4)cc3)n2)CC1`
Given back: 0

Asked: Threshold query (pIC50 >= 8) on Cc1noc2cc(-c3sc(C(=O)N4C5CCC4CC(N)C5)cc3-c3ccc4cn[nH]c4c3)c(F)cc12 (stereo not shown) [Example 205, hydrochloride]
Given back: 0

Asked: Threshold query (pIC50 >= 8) on `Cc1ccc(-c2c(-c3ccc(C#N)c(F)c3)nc(N(C)CCCN)n3ccnc23)cc1O`
Given back: 1

Asked: Threshold query (pIC50 >= 8) on CC(C)(O)COc1ccc(-c2cnc(N3CCC(N)CC3)c(C#N)c2-c2ccc(C#N)c(F)c2)cc1O [Example 86, hydrochloride]
Given back: 1

Asked: Threshold query (pIC50 >= 8) on `CS(=O)(=O)N1CCN(C(=O)c2cc(CN[C@@H]3C[C@H]3c3ccc(F)cc3)nc(-c3ccc(-n4cccn4)cc3)n2)CC1`
Given back: 0

Asked: Threshold query (pIC50 >= 8) on `N#Cc1ccc(-c2nc(N3CCC(N)CC3)n3ccnc3c2-c2ccn3ccnc3c2)cc1F`
Given back: 1

###

Please respond with reported Cmax for every item in the list.
experimental.details: in vivo
particulars: male, SD, rat
Give the value in ng/mL but do not write ng/mL after it.

Asked: For COc1ccc(-c2c(-c3ccc(C#N)c(F)c3)nc(N3C4CCC3CC(N)C4)n3ccnc23)cc1F (centres unmarked) , write its Cmax.
Given back: 34.7

Asked: For Cc1noc2cc(-c3c(-c4ccc(C#N)c(F)c4)nc(N4C5CCC4CC(N)C5)n4ccnc34)c(F)cc12 (centres unmarked) , write its Cmax.
Given back: 26.9
